Attribution: patent EP4194000A1

assaySystem: PAR-2 (Homo sapiens)
Construct: expressed in transfected cells; host or cells: CHO-K1 mt aequorin (parental line named; inferred to be the host of the recombinant cells)
Sequence (P55085 26-397): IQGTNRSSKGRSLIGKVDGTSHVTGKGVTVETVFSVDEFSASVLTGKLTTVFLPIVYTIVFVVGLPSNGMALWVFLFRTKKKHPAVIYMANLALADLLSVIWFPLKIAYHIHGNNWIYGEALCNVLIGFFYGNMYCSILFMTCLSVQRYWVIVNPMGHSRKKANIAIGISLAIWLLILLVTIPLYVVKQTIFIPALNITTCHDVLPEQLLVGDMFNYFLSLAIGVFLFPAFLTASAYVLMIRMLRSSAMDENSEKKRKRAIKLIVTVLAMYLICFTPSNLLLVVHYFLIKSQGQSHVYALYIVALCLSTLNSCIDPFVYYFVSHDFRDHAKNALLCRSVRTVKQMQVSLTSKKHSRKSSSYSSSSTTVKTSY
protocolDetails: Aequorin test, agonist activity on recombinant PAR-2
Assay type: cell-based, humains
experimentalContext: reference agonist for PAR-2; read-out: CE50 (the source's name)
Ends that are not written are not given here.
measure: EC50 (nM)
# value in nM; strip the unit string

Briefly, EC50 measured for SLIGRL-NH2 [SLIGRL-NH2] : 524
